- Experimental Protocol: Interfacial shear viscoelasticity, double-wall ring rheometer
- Assay type: physicochemical
- Setup Conditions: 1 mM acid in 1% Na2SO4 brine, GB oil, 25° C.; compared to the brine
Recorded Endpoint: tan (δ) (%)

Worked cases, answers included:
O=C(O)C1CCCC1 [NA14, cyclopentane carboxylic acid] | 90.6
O=C(O)[C@@H]1CCCN1 [L-Proline, L-proline] | 114

(I) O=C(O)C1CCCCC1 [NA18, cyclohexane carboxylic acid]
(II) Cc1ccc(C(=O)O)cc1 [NA12, p-toluic acid]
Request: Response body: label of entry with the larger tan (δ); valid values I , II . Give the chosen item's label as your response.
Response: II

###

- Experimental Protocol: Interfacial shear viscoelasticity, double-wall ring rheometer
- Type: physicochemical
- Setup Conditions: 1 mM acid in 1% Na2SO4 brine, GB oil, 25° C.; compared to the brine viscoelastic moduli
- Protocol: Rheological experiments were conducted with the GB oil and a low-salinity brine (1% Na2SO4) spiked with low concentration of organic acids using a TA Instruments AR-G2 Rheometer with a double-wall ring geometry. […] The shear viscoelasticities were recorded at 25° C. […] Experiments were run in the linear viscoelastic region, determined with a strain sweep test at fixed frequency on individual samples to determine appropriate values for each parameter in the following experiments. […]
Recorded Endpoint: Fractional G′ (%)

O=C(O)[C@@H]1CCCN1 | 53

(a) O=C(O)C1CCCCC1
(b) O=C(O)C1CCCC1
Request: Response body: label of entry with the larger Fractional G′; valid values a , b . Give the chosen item's label as your response.
Response: b
(b: 151%, a: 42%)

###

- Experimental Protocol: Emulsion stability by TD-NMR droplet-size distribution
- Type: physicochemical
- Setup Conditions: 1 mM acid in 1% Na2SO4, 1:1 with GB oil; change days 1-5
Recorded Endpoint: Δd3 day 5

Cc1ccc(C(=O)O)cc1 | 1.315
O=C(O)[C@@H]1CCCN1 | 1.045
O=C(O)C1CCCCC1 | 1.5395
O=C(O)C1CCCC1 | 1.3475

###

- Experimental Protocol: Emulsion stability by TD-NMR droplet-size distribution
- Format: physicochemical
- Setup Conditions: 1 mM acid in 1% Na2SO4, 1:1 with GB oil; change days 1-5
- Protocol: Dispersions were prepared in a 1:1 volume ratio with GB oil to each acid (1 mM) in the 1% Na2SO4 brine. The dispersions were emulsified via […] at 6500 rpm for 30 seconds in an Ultra Turrax T25 basic (IKA-Werke) homogenizer. […] [formula] where qi is the log-normal distribution, d50,i is the geometric mean diameter. Bruker software is used for the NMR and that calculated the droplet size distribution. […]
Recorded Endpoint: Δσ day 5

Cc1ccc(C(=O)O)cc1 | 0.1998

(A) O=C(O)C1CCCCC1
(B) O=C(O)C1CCCC1
Request: # return whichever of A and B has the smaller Δσ day 5 Give the chosen item's label as your response.
Response: A
(A: 0.1263, B: 1.3475)

###

- Experimental Protocol: Emulsion stability by TD-NMR droplet-size distribution
- Format: physicochemical
- Setup Conditions: 1 mM acid in 1% Na2SO4, 1:1 with GB oil; change days 1-14
- Description: Dispersions were prepared in a 1:1 volume ratio with GB oil to each acid (1 mM) in the 1% Na2SO4 brine. The dispersions were emulsified via […] at 6500 rpm for 30 seconds in an Ultra Turrax T25 basic (IKA-Werke) homogenizer. […] [formula] where qi is the log-normal distribution, d50,i is the geometric mean diameter. Bruker software is used for the NMR and that calculated the droplet size distribution. […]
Recorded Endpoint: Δσ day 14

Worked cases, answers included:
Cc1ccc(C(=O)O)cc1 | 0.3463
O=C(O)C1CCCCC1 | 0.2238

(P) O=C(O)[C@@H]1CCCN1
(Q) O=C(O)C1CCCC1
Request: # return whichever of P and Q has the smaller Δσ day 14 Give the chosen item's label as your response.
Response: P
